Source: PubChem BioAssay (NCI)

Experiment: NCI Yeast Anticancer Drug Screen. Data for the bub3 strain (AID 167)
Conditions: S. cerevisiae bub3 mutant strain, at 50.0 µM, active compounds read high
The panel holds about 79,000 compounds, 15% with a hit somewhere; the sample as a whole holds those more often.
MEASURED PARAMETER: growth inhibition (%)
The reply should contain only the number, in %.

Quote growth inhibition reported for FC(F)(F)c1cccc(C=NC23CC4CC(CC(C4)C2)C3)c1 please.
-30

---

Test: NCI Yeast Anticancer Drug Screen. Data for the cln2 rad14 strain (AID 165);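 further: 0% = growth equal to vehicle treated cultures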
Settings: S. cerevisiae cln2 rad14 strain, at 50.0 µM, active compounds read high
This is part of a sample that, as a whole, favours compounds with a hit. Of some 79,000 tested, about 15% had one in any assay.
MEASURED PARAMETER: growth inhibition (%)
The reply should contain only the number, in %.

CCOC(=O)CSc1ccnc(=O)[nH]1 ... 0.1
C#CCC[N+](C)(C)C ... 11.2
COC12C=CC(CC1)C1C(=O)C=CC(=O)C12 (stereo unspecified) ... -39.3
CC12CCCCC1C1=C(CCCC1)CC2 (stereo unspecified) ... 9.4
CCC(CC)C(=O)NC(=O)NC ... -25.1

Quote growth inhibition reported for Cc1ccc(S(=O)(=O)Oc2ccc(N(CC(=O)O)S(=O)(=O)c3ccc(C)cc3)cc2)cc1 please.
11.8

Quote growth inhibition reported for CCCC1(C)COC(/C=C/c2ccccc2)OC1 (stereo unspecified) please.
-1.85

---

Assay: NCI Yeast Anticancer Drug Screen. Data for the cln2 rad14 strain (AID 165);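 further: 0% = growth equal to vehicle treated cultures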
Details: S. cerevisiae cln2 rad14 strain, at 50.0 µM, active compounds read high
About 79,000 compounds went through this panel and 15% of them were active in at least one assay; those are over-represented in the sample as a whole.
MEASURED PARAMETER: growth inhibition (%)
The reply should contain only the number, in %.

CC(C=O)C1CCCCC1 (stereo unspecified) ... 7.4
CC(=O)OCC1OC(OC(C)=O)C(NC(=O)CNC(=O)OCc2ccccc2)C(OC(C)=O)C1OC(C)=O (stereo unspecified) ... 7.8

Quote growth inhibition reported for Cc1ccc(SSCC(O)C(O)CSSc2ccc(C)cc2)cc1 (stereo unspecified) please.
21.8

Quote growth inhibition reported for CCOC(=O)c1nc2ccc(C(F)(F)F)cc2[nH]c1=O please.
-47.2

Quote growth inhibition reported for CCN(CC)CCOC(NC(C)=O)(c1ccccc1)c1ccccc1 please.
1.55

Quote growth inhibition reported for CC(C)NS(=O)(=O)c1ccc(Cl)cc1 please.
0.4

---

Below, each entry is listed with its recorded growth inhibition.
Test: NCI Yeast Anticancer Drug Screen. Data for the sgs1 mgt1 strain (AID 161);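 further: 0% = growth of cultures given vehicle only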
Conditions: S. cerevisiae sgs1 mgt1 strain, at 50.0 µM, active compounds read high
The panel holds about 79,000 compounds, 15% with a hit somewhere; the sample as a whole holds those more often.
The reply should contain only the number, in %.

A selection of reference data follows.
CN1C(NC(=O)C(C)(C)O)C(C)(C)C(C)(C)C1NC(=O)C(C)(C)O (stereo not given) ... 42.3
CCCCCCCCCCCCCCCCCC(=O)N/N=C/c1ccc(Cl)cc1 ... -11.6
C[N+](C)(CCO)CCO ... -8.5
COC(=O)Cc1onc(-c2ccccc2)c1[N+](=O)[O-] ... -4.8
CCc1cccc(CC)c1NC(=O)Nc1cc(Cl)ccc1C ... 5.4

Quote growth inhibition reported for OCC1NCCCC1O (stereo not given) please.
-22.9

Quote growth inhibition reported for COc1ccccc1CNCc1nc2ccccc2[nH]1 please.
6.9

Quote growth inhibition reported for CCOc1ccc(Nc2nc(C)c(C(=O)CC(=O)C(=O)Nc3ccc(C(C)C)cc3C(C)C)s2)cc1 please.
5.45

Quote growth inhibition reported for CC1(C)CSC(C)(C)C(=O)N1 please.
-3.6

Quote growth inhibition reported for Clc1ccc(C2ON=C(c3ccccc3)N2C23CC4CC(CC(C4)C2)C3)cc1 (stereo not given) please.
-24.1

Quote growth inhibition reported for CC(NC(=O)c1ccc(C(C[N+](=O)[O-])SCCC(=O)O)cc1)C(=O)O (stereo not given) please.
26.2

Quote growth inhibition reported for O=S(=O)(c1ccc(OCCOc2ccc(S(=O)(=O)N3CCOCC3)cc2)cc1)N1CCOCC1 please.
12.6

Quote growth inhibition reported for COc1ccc2c(c1)CN(C)c1ccc(OC)cc1CN2C please.
12.2

Quote growth inhibition reported for N#C/C(=N\NC(=O)c1ccncc1)c1ccc(Cl)cc1 please.
3.75

Quote growth inhibition reported for O=C1NC(c2ccccc2Cl)Nc2ccccc21 (stereo not given) please.
5.65

---

Below, each entry is listed with its recorded growth inhibition.
Experiment: NCI Yeast Anticancer Drug Screen. Data for the sgs1 mgt1 strain (AID 161);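 further: 0% = growth of cultures given vehicle only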
Conditions: S. cerevisiae sgs1 mgt1 strain, at 50.0 µM, active compounds read high
Procedure: Growth inhibition of yeast strains with defined genetic alterations is measured as a screen for potential anti-cancer activity. Selected strains with alterations in DNA damage repair or cell cycle control were exposed to compounds and growth inhibition was measured relative to vehicle treated controls. The strain used in this assay is sgs1 mgt1
The panel holds about 79,000 compounds, 15% with a hit somewhere; the sample as a whole holds those more often. The source made the active and inactive calls. Cut-off read from the data, not from the text of the source: active = growth inhibition above about 70%; inactive = the rest.

A selection of reference data follows.
COc1ccc(C(=O)Nc2c(N)ncnc2N)cc1 ... 35.1% (inactive)
CCN(CC)c1ncnc2n[nH]nc12 ... -18% (inactive)

Quote growth inhibition reported for CCOC(=O)c1cccc(Cl)c1C(=O)O please.
0.25% (inactive)

Quote growth inhibition reported for O=C(O)/C=C\C(=O)Nc1ccc(N=Nc2ccccc2)cc1 please.
-7.95% (inactive)

Quote growth inhibition reported for CCC1OC(=O)C(C)C(OC2CC(C)(O)C(O)C(C)O2)C(C)C(O)C(C)(O)CC(C)C(=O)C(C)C(O)C1C (configuration not stated) please.
0.5% (inactive)

Quote growth inhibition reported for Cc1cccc(C2=N/C(=C\c3c(O)ccc4ccccc34)C2=O)c1 please.
0.9% (inactive)

Quote growth inhibition reported for CCN(CC)Cc1ccccc1COC(=O)c1ccc(OC)cc1 please.
14.8% (inactive)

Quote growth inhibition reported for CN(C)CCC(=O)c1cccc(O)c1 please.
-6.4% (inactive)

---

Test: NCI Yeast Anticancer Drug Screen. Data for the mec2-1 strain (AID 157)
Conditions: S. cerevisiae mec2-1 strain, at 50.0 µM, active compounds read high
The panel holds about 79,000 compounds, 15% with a hit somewhere; the sample as a whole holds those more often.
Below, each entry is listed with its recorded growth inhibition.
The reply should contain only the number, in %.

Quote growth inhibition reported for CCC1CCN(CC)CC1 please.
-37.4

---

Assay: NCI Yeast Anticancer Drug Screen. Data for the mlh1 rad18 strain (AID 175)
Details: S. cerevisiae mlh1 rad18 strain growth inhibition; at 50.0 µM; active compounds read high
Compounds without any hit were thinned out: in the full panel of roughly 79,000, 15% have a hit.
Please assign a class to every record based on measured growth inhibition, with ranges class 1 = under -10%, class 2 = from -10% up to 10%, class 3 = 10% and over

Solved entries:
Cc1cc(=O)n2c(c1)[nH]c1ccccc12 ... class 2
O=S(Cc1cnc2ccccc2c1)c1nc2ccccc2nc1-c1cccs1 (stereo unspecified) ... class 1
CC(F)(F)C(F)(F)C(=O)CC(=O)C(F)(F)F.CC(F)(F)C(F)(F)C(=O)CC(=O)C(F)(F)F.[Cu] ... class 1
O=C(O)CCCCC(=O)c1ccccc1 ... class 3
CC(=O)Nc1cc2cc(Br)ccc2oc1=O ... class 3

Which bin, given its growth inhibition, does Cc1ccc(C2=Nc3ccccc3SC(c3cccc([N+](=O)[O-])c3)C2)cc1 (stereo unspecified) occupy?
class 2

Which bin, given its growth inhibition, does O=c1cc(-c2ccccc2)c2ccc(O)cc2o1 occupy?
class 2

Which bin, given its growth inhibition, does CC(C)C/C(=N\NC(N)=O)C1=CCCCC1 occupy?
class 3

Which bin, given its growth inhibition, does O=[N+]([O-])c1ccc(P(=O)(Nc2ccc3ccccc3c2)Nc2ccc3ccccc3c2)cc1 occupy?
class 3

Which bin, given its growth inhibition, does CC1(C)COCN1COCCOCN1COCC1(C)C occupy?
class 1

---

Assay: NCI Yeast Anticancer Drug Screen. Data for the rad50 strain (AID 155);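 further: 0% = growth of vehicle-only cultures of the same strain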
Settings: S. cerevisiae rad50 strain growth inhibition; at 50.0 µM; active compounds read high
Compounds without any hit were thinned out: in the full panel of roughly 79,000, 15% have a hit. Active and inactive are the calls of the source. No stated cut-off is given here; in the data, active means growth inhibition above about 70%; inactive means the rest.
MEASURED PARAMETER: growth inhibition

A selection of reference data follows.
CC(=O)NC(CCCCNC(=O)NCCCl)C(=O)NCc1ccccc1 (configuration not stated) ... 3.3% (inactive)
COC(=O)N1C(c2ccccc2)C=CC(c2ccccc2)N1C(=O)OC (configuration not stated) ... 12.7% (inactive)
NS(=O)(=O)/C=C(\Cl)c1ccccc1 ... 1.7% (inactive)
Cn1nnc(/C(N)=N/N=C/c2ccccc2)n1 ... 1.95% (inactive)
CC(=O)c1cccc2ccccc12 ... -7.8% (inactive)

Quote growth inhibition reported for CC1=COC2(CC1)OC1CC3C4CCC5CC(O)CCC5(C)C4CCC3(C)C1C2C (configuration not stated) please.
72.5% (active)

Quote growth inhibition reported for O=C(O)[C@H](CSSC[C@@H](C(=O)O)N1C(=O)c2ccccc2C1=O)N1C(=O)c2ccccc2C1=O please.
20.3% (inactive)
